assay: Plasma protein binding in CD2F1 mouse at 0.1 to 2.5 ug/ml by ultracentrifugation; type: ADME, cell-free; details: read-out: PPB (converted)
MEASURED PARAMETER: fraction unbound

COMPOUND | RECORDED VALUE
CC(C)=CCC/C(C)=C/CNCCNC1C2CC3CC(C2)CC1C3 (stereo unspecified) | 0.94

----------
test: Cmax in healthy human at 600 mg/kg, po; assay type: ADME, organism-based; set-up: dose 600 mg/kg, route oral; conditions: in vivo

COMPOUND | Cmax, ng/mL
CO[C@H]1/C=C/O[C@@]2(C)Oc3c(C)c(O)c4c(O)c(c(/C=N/N5CCN(C6CCCC6)CC5)c(O)c4c3C2=O)NC(=O)/C(C)=C\C=C\[C@H](C)[C@H](O)[C@@H](C)[C@@H](O)[C@@H](C)[C@H](OC(C)=O)[C@@H]1C [RIFAPENTINE] | 10000

----------
assay: Drug excretion in feces of healthy human; format: ADME; settings: faeces, read-out: Activity
MEASURED PARAMETER: dose excreted

COMPOUND | RECORDED VALUE
O=[N+]([O-])c1cn2c(n1)OC[C@@H](OCc1ccc(OC(F)(F)F)cc1)C2 [PRETOMANID] | 26%

----------
test: Tmax in healthy human; format: ADME, organism-based; settings: in vivo
MEASURED PARAMETER: Tmax

MOLECULE | MEASURED PARAMETER | RECORDED VALUE
O=[N+]([O-])c1cn2c(n1)OC[C@@H](OCc1ccc(OC(F)(F)F)cc1)C2 [PRETOMANID] | Tmax | 4 h

----------
assay: Plasma protein binding in Beagle dog at 0.1 to 2.5 ug/ml by ultracentrifugation; type: ADME, cell-free, Canis lupus familiaris; conditions: read-out: PPB (converted)

COMPOUND | fraction unbound
CC(C)=CCC/C(C)=C/CNCCNC1C2CC3CC(C2)CC1C3 (stereo unspecified) [SQ109] | 0.94

----------
experiment: Renal excretion in healthy human at 400 mg/kg, po administered as single dose; format: ADME, organism-based, Kidney; design: dose 400 mg/kg, route oral; conditions: urine, read-out: Activity

COMPOUND | dose excreted [%]
COc1c(N2CCNC(C)C2)c(F)cc2c(=O)c(C(=O)O)cn(C3CC3)c12 (stereo unspecified) | 77

----------
experiment: Plasma protein binding in Fischer rat at 0.1 to 2.5 ug/ml by ultracentrifugation; type: ADME, cell-free; details: read-out: PPB (converted)
MEASURED PARAMETER: fraction unbound

COMPOUND | RECORDED VALUE
CC(C)=CCC/C(C)=C/CNCCNC1C2CC3CC(C2)CC1C3 (stereo unspecified) [SQ109] | 0.94

----------
assay: AUC in healthy human at 10 mg/kg, po; format: ADME, organism-based; parameters: dose 10 mg/kg, route oral; details: plasma

STRUCTURE NOTATION | READOUT UNITS | AUC
CO[C@H]1/C=C/O[C@@]2(C)Oc3c(C)c(O)c4c(O)c(c(/C=N/N5CCN(C)CC5)c(O)c4c3C2=O)NC(=O)/C(C)=C\C=C\[C@H](C)[C@H](O)[C@@H](C)[C@@H](O)[C@@H](C)[C@H](OC(C)=O)[C@@H]1C | ng·h/mL | 21500
